These measurements were taken from PubChem BioAssay (NCI).

test system: MDA-MB-231 breast; assay: NCI tumour cell line growth inhibition, 48 h

COMPOUND	TGI
C=C1CN(C(=O)c2cc3cc(OC)c(OC)c(OC)c3[nH]2)c2cc([N+](=O)[O-])ccc21	88.5 µM
COc1ccc(/C(C#N)=C/c2nc3c(N4CCOCC4)nc(Cl)nc3n2C)cc1OC	2.46 µM
COC(=O)[C@@]12CC3CN(Cc4c1[nH]c1ccccc41)C2CC3=O	> 100 µM
Oc1ccc(Br)cc1CN1CCN(Cc2ccc(Cl)cc2)CC1	59.4 µM
Cc1ccc(NC(=O)C(=O)C2C(=O)C3=C(CC2(C)C)NC2C=CC=CC2S3)c(C)c1 (stereo not given)	> 100 µM
CN(C)c1ccc(C(=C2C=CC(=[N+](C)C)C=C2)c2c(O)c(S(=O)(=O)[O-])cc3cc(S(=O)(=O)O)ccc23)cc1	> 100 µM
C/C(=N\NC(=S)N/N=C(\C)c1ccccn1)c1ccccn1	> 100 µM
CCOC(=O)Cn1c(=O)c2cc(C)cc3c(Cl)nc4c(OC)c(OC)cc1c4c32	> 100 µM
COc1c2c(cc3oc(=O)ccc13)OC(C)(C)C=C2	76.2 µM
COc1cc(Oc2cnc3cc(N)cc(N)c3n2)cc(OC)c1OC	95.8 µM
COc1ccc(C2CC(c3cccc(Nc4ccnc5cc(Cl)ccc45)c3)=NN2c2ccccc2)cc1 (stereo not given)	29.2 µM
CSc1nc(NC2CC2)c2c(n1)Sc1nc3ccccc3n1N=C2	48.9 µM
C/C(=C/CC[C@](C)(OC1OC(CO)C(O)C(O)C1OC1OC(C)C(O)C(O)C1O)[C@H]1CC[C@]2(C)[C@@H]1CC[C@@H]1[C@@]3(C)CC[C@H](O)C(C)(C)[C@@H]3C[C@H](O)[C@]12C)CO (stereo not given in full)	> 100 µM
CO/C=C(/C(=O)OC)c1ccccc1[C@H]1C[C@@H]1c1ccc(OC)cc1	94.2 µM
CC(C)=CCNc1ncnc2c1ncn2C1OC(COP(=O)(O)O)C(O)C1O (stereo not given)	5.48 µM

----------
test system: BT-549 breast; assay: NCI tumour cell line growth inhibition, 48 h; in the data active = GI50 below about 0.43 µM; inactive = the rest
Where a SMILES comes first, the peptide text is derived from it. [ ]: non-standard residue; d: D form. The star is where a group is joined. ξ: configuration not given here. 4Abz = Nc1ccc(C(=O)O)cc1; ξL = CC(C)CC(N)C(=O)O; NHOH = ON*
Outcome codes: 1 for active, 0 for inactive

MOLECULE	ASSAY TARGET	CAT
NS(=O)(=O)OC[C@H]1O[C@@H](n2cnc3c(N[C@H]4CCc5ccccc54)ncnc32)[C@H](O)[C@@H]1O	BT-549 breast	1
O=C(/C=C/c1ccco1)c1ccc(Nc2ccnc3cc(Cl)ccc23)cc1	BT-549 breast	0
Nc1ncnc2c1ncn2C1OC(CO)C(O)C1O (stereo not given)	BT-549 breast	0
CC(C)CC(NC(=O)[C@@H]1CCCN1C(=O)CNC(=O)c1ccc(N)cc1)C(=O)N[C@H](C)C(=O)NO (stereo not given in full) (H-[4Abz]GP[ξL][dA]-{NHOH})	BT-549 breast	0
C=CC[n+]1c(/C=C2\Sc3ccccc3N2C)sc(-c2ccccc2)c1-c1ccccc1	BT-549 breast	1

----------
tested on: MDA-MB-435; assay: NCI tumour cell line growth inhibition, 48 h
Rule: Satisfied for TGI not less than 30 µM, Not satisfied for anything less.

COMPOUND	CAT
O=C1N2CCN=C2c2ccccc2C1(O)c1ccccc1 (configuration not stated)	Satisfied
CS(=O)(=O)c1nc(-c2cc3c(c(S(C)(=O)=O)n2)CCC3)cc2c1CCC2	Satisfied
COC(=O)C(=O)C(C(=O)C(=O)Nc1ccc(Cl)cc1Cl)c1nc2ccc(Cl)cc2[nH]c1=O (configuration not stated)	Satisfied
COc1ccc(/C=C/C=C2C(=O)NC(=S)NC2=O)cc1	Not satisfied
O=C(O)CSc1ccn(Cc2ccccc2)c1	Satisfied
O=C(O)CC(Cc1ccccc1)C(=O)O (configuration not stated)	Satisfied
CC(=O)c1c[nH]c2ccc(-c3ccnc(Nc4ccc(NC(=O)c5cccc(F)c5)c(CN5CCOCC5)c4)n3)cc12	Not satisfied
COc1ccc(-c2ccc(/C=N/n3cnn(CN4CCN(C)CC4)c3=S)o2)c([N+](=O)[O-])c1	Satisfied
CCOC(=O)C(NC(=O)Nc1ccccc1)(Nc1cccc(Cl)c1)C(F)(F)F (configuration not stated)	Satisfied
N#CCCN(CCN(CCN(C(=O)Nc1ccccc1)c1ccccc1)C(=O)Nc1ccccc1)C(=O)Nc1ccccc1	Satisfied
O=C(/C=C/c1ccco1)c1ccc(Nc2ccnc3cc(Cl)ccc23)cc1	Satisfied
COc1ccc(OC)c(-c2cc(-c3ccc(Cl)cc3)nn2-c2ccc(S(N)(=O)=O)cc2)c1	Satisfied
NC(=O)c1ncn(C2CCC(CP(=O)(O)O)C2)c1N (configuration not stated)	Satisfied
Oc1ccc(Br)cc1CN1CCN(Cc2ccc(Cl)cc2)CC1	Satisfied
O=C(NC12CC3CC(CC(C3)C1)C2)n1cnc2cncnc21	Satisfied
Clc1ccc2nc3c(c(-c4ccccc4)nn3-c3ccccc3)c(-c3ccccc3)c2c1	Satisfied
COc1cc(Oc2cnc3cc(N)cc(N)c3n2)cc(OC)c1OC	Satisfied
N=C(N)c1ccc(-c2ccc(-c3ccco3)o2)cc1	Not satisfied
Nc1c2c(nc3ccccc13)-c1ccccc1CCC2	Not satisfied
CC(=O)NC1=NC(=O)/C(=C/c2ccc(Cl)cc2Cl)N1C	Satisfied

----------
test system: HOP-92 NSCLC; assay: NCI tumour cell line growth inhibition, 48 h
This section presents compounds with their documented TGI values.

COMPOUND	TGI
NCCCCN(CCCN)C(=O)OCc1ccccc1	> 100 µM
O=C1NC(N2CCOCC2)=N/C1=C\c1ccccc1	> 100 µM
CC([C@H]1CCC2C3CCC4C(=O)C(NC=O)=CC[C@]4(C)C3CC[C@@]21C)N(C)C (some centres undefined)	12.7 µM
COc1cc(C2CC(c3ccc(C)cc3)=NN2C(C)=O)ccc1Oc1ccnc2cc(Cl)ccc12 (centres undefined)	> 100 µM
COC(=O)c1nc(N)[nH]c(=O)c1-c1ccc(Cl)cc1	> 100 µM
N#CC1=C(N)NC(=S)NC1c1ccc(-c2ccc(-c3nc4ccccc4s3)cc2)o1 (centres undefined)	> 50 µM
CC(CCC(=O)O)(c1cc(Br)c(O)c(Br)c1)c1cc(Br)c(O)c(Br)c1	> 100 µM
O=C(NCCc1ccc(F)cc1)c1cc(/C=C/c2cc(O)ccc2O)ccc1O	3.97 µM
COC1=C(C(=O)OC(C)(C)C)C23CCCCC2(C(C(=O)OC(C)(C)C)=C(OC)C3C(=O)OC(C)(C)C)C1C(=O)OC(C)(C)C (centres undefined)	89.5 µM
COC12OC3(C4OC41)C(C(=O)O[C@H]3CO[Si](C)(C)C(C)(C)C)C2S(=O)(=O)c1ccccc1 (some centres undefined)	> 100 µM
CC(CC(C)[C@H]1CCC2[C@H]3C(CC[C@@]21C)[C@@]1(C)CCC(O)C[C@H]1C[C@@H]3O)C(=O)O (some centres undefined)	> 100 µM
Nc1nc(Cl)cc2c1ncn2C1OC(CO)C(O)C1O (centres undefined)	> 100 µM
COc1ccc(NC(=O)CC(=O)n2nc(-c3ccccc3)c(N=Nc3ccc(C)cc3)c2-c2ccccc2)cc1	40.6 µM
O=C1/C(=C/c2ccc(F)cc2)CN(Cc2cn(CCNc3ccnc4cc(Cl)ccc34)nn2)C/C1=C\c1ccc(F)cc1	3.05 µM
CCOC(=O)C(C(N)=O)c1nc2cc([N+](=O)[O-])ccc2nc1/C=C(\O)c1ccc(C)cc1 (centres undefined)	40.8 µM
CC(=O)Nc1ccc(S(=O)(=O)/N=c2/sc(S(N)(=O)=O)nn2C)cc1	> 100 µM
COc1ccc2c(c1)C(CCN)C(=O)N2 (centres undefined)	> 100 µM
COc1cc(/C=C/C(=O)OC[C@]23O[C@H]2[C@@H](OC2OC(C)C(O)C(O)C2O)C2C=CO[C@@H](OC4OC(CO)C(O)C(O)C4O)C23)ccc1O (some centres undefined)	> 100 µM
CC(C)=CCC[C@@H](C)c1c(O)c(O)c(C)c2nc3ccccc3nc12	5.11 µM

----------
tested on: TK-10 renal; test: NCI tumour cell line growth inhibition, 48 h
Each item that follows carries a reported GI50.

COMPOUND	GI50
COC(=O)c1ccc2c(c1)CCN2C(=O)c1cc2c(cc1Br)OCO2	27.1 µM
CC(=N\O)/C(C)=N/O.CC(=N\O)/C(C)=N/O.[Pd]	4.57 µM
CC(C)=CCNc1ncnc2c1ncn2C1OC(COP(=O)(O)O)C(O)C1O (centres undefined)	2.06 µM
O=C1C=Cc2cc3ccccc3c3cccc1c23	9.55 µM
N=C(N)c1ccc(-c2ccc(-c3ccco3)o2)cc1	4.33 µM
O=C1/C(=C/c2ccc(F)cc2)CN(Cc2cn(CCNc3ccnc4cc(Cl)ccc34)nn2)C/C1=C\c1ccc(F)cc1	1.85 µM
Cc1c(Br)cccc1NC(=O)c1sc2nc3c(cc2c1N)CN(Cc1ccccc1)CC3	1.19 µM
CN1CCN(c2nc(NCCNc3ccnc4cc(Cl)ccc34)c3ccccc3n2)CC1	2.72 µM
CCCCC#Cc1c(I)n(C2OC(CO[Si](C)(C)C(C)(C)C)C3OC(C)(C)OC32)c(=O)[nH]c1=O (centres undefined)	4.32 µM
